# residual activity values compiled below
Target: PLK3 (human) (UniProt Q9H4B4)
Sequence (Q9H4B4 whole entry, looked up): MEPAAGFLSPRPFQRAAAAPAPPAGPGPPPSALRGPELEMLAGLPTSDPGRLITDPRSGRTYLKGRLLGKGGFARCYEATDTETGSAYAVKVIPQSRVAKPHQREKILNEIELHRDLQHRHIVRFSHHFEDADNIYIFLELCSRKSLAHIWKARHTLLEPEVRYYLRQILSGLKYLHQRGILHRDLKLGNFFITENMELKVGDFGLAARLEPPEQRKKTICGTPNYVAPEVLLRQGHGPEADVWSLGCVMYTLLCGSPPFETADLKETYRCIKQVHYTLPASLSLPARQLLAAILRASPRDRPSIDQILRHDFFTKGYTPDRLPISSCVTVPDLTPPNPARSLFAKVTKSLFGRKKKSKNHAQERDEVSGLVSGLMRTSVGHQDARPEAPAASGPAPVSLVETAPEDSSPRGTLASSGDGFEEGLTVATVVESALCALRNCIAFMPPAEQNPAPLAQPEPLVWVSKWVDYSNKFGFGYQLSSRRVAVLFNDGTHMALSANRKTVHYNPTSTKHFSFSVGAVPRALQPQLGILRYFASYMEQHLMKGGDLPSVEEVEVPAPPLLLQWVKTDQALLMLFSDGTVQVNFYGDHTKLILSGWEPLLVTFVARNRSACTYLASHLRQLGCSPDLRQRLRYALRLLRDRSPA
Assay: radiometric filter-binding kinase assay, Kinase HotSpot
Settings: compound 0.5 µM; ATP 10 µM
result-type: residual activity (%)

• CN([C@@H](Cc1ccc(OS(=O)(=O)c2cccc3cnccc23)cc1)C(=O)N1CCN(c2ccccc2)CC1)S(=O)(=O)c1cccc2cnccc12 = 99.3
• O=C1Cc2c([nH]c3ccc(Br)cc23)-c2ccccc2N1 = 96
• CCN(CC)CCCCN1c2ccccc2Oc2ccc(Cl)cc21 = 102
• CCn1cnc2c(Nc3cccc(Cl)c3)nc(N[C@@H]3CCCC[C@@H]3N)nc21 = 90.1
• COc1ccc(OC)c2c(=S)c3ccccc3[nH]c12 = 99.8
• COc1cc2ncnc(N3CCN(C(=O)Nc4ccc(Oc5ccccc5)cc4)CC3)c2cc1OC = 91.8
• O=C(O)/C=C/c1cc(Br)c(Br)c(Br)c1Br = 73.6
• Cc1nc2cc3nc(-c4cccs4)cnc3cc2n1C = 95.6
• CC(C)[C@H](CO)Nc1nc(Nc2cc(N)cc(Cl)c2)c2ncn(C(C)C)c2n1 = 62.8
• O=C(Nc1cccc(Nc2cc(Nc3cccc(C(F)(F)F)c3)ncn2)c1)C1CC1 = 99.1
• Cn1nc2c3c(cccc31)C(=O)c1ccccc1-2 = 96.2
• O=C1NC(=O)C(c2cn(CCCO)c3ncccc23)=C1c1cnccn1 = 91.1
• O=C1NC(=O)/C(=C\c2ccc3nccnc3c2)S1 = 97.7
• Cn1sc(=O)n(Cc2ccccc2)c1=O = 99.1
• O=C1Nc2ccccc2/C1=C1\Nc2ccccc2\C1=N/O = 93
• CC(C)c1nn(-c2c(Cl)cccc2Cl)c2nc(Cc3ccc(OCCO)cc3)nc(O)c12 = 99.1

====

Biological target: CSK (human) (UniProt P41240)
Sequence (P41240 whole entry, looked up): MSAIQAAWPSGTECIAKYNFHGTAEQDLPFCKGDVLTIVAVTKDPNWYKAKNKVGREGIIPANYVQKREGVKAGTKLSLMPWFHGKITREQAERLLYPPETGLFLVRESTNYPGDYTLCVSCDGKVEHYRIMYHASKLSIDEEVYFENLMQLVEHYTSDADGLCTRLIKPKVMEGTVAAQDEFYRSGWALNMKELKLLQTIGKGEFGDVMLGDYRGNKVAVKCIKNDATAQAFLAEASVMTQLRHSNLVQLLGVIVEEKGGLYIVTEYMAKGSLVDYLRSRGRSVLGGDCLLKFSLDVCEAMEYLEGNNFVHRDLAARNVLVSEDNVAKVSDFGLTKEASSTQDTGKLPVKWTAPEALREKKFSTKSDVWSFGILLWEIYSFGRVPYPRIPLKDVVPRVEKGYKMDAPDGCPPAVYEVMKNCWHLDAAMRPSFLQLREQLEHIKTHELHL
Assay: radiometric filter-binding kinase assay, Kinase HotSpot
Conditions: compound 0.5 µM; ATP 10 µM
# residual activity values compiled below
result-type: residual activity (%)

- Nc1nccc(-c2c(-c3ccc(F)cc3)ncn2C2CCNCC2)n1: 90.8
- COc1ccc(OC)c2c(=S)c3ccccc3[nH]c12: 103
- O=C1NC(=O)C(c2cn(CCCO)c3ncccc23)=C1c1cnccn1: 86.9
- O=C1Nc2ccccc2/C1=C1/Nc2ccccc2/C1=N\OCCC(O)CO (configuration not stated): 86.3
- CCn1cnc2c(Nc3cccc(Cl)c3)nc(N[C@@H]3CCCC[C@@H]3N)nc21: 85.4
- O=C(Nc1cccc(Nc2cc(Nc3cccc(C(F)(F)F)c3)ncn2)c1)C1CC1: 102
- CN(C)C[C@H]1CCn2c(c(C3=C(c4cn(C)c5ccccc45)C(=O)NC3=O)c3ccccc32)C1: 104
- O=C1NC(=O)C(c2c[nH]c3ccccc23)=C1c1c[nH]c2ccccc12: 103
- O=C1NC(=O)/C(=C\c2ccc3nccnc3c2)S1: 86.3
- Cn1nc2c3c(cccc31)C(=O)c1ccccc1-2: 88.7
- CC(C)c1nn(-c2c(Cl)cccc2Cl)c2nc(Cc3ccc(OCCO)cc3)nc(O)c12: 106
- Oc1ccc(Nc2nc(-c3ccc(Cl)cc3)cs2)cc1: 101
- O=C(O)/C=C/c1cc(Br)c(Br)c(Br)c1Br: 103
- Cn1cnc2cc3c(Nc4cccc(Br)c4)ncnc3cc21: 88.1
- O=C1Nc2ccccc2/C1=C1\Nc2ccccc2\C1=N/O: 93
- COc1ccc(CNC(=O)Nc2ncc([N+](=O)[O-])s2)cc1: 102
- CC(C)[C@H](CO)Nc1nc(Nc2cc(N)cc(Cl)c2)c2ncn(C(C)C)c2n1: 79.3
- Cc1nc2cc3nc(-c4cccs4)cnc3cc2n1C: 101
- O=C1Cc2c([nH]c3ccc(Br)cc23)-c2ccccc2N1: 88
- CCN(CC)CCCCN1c2ccccc2Oc2ccc(Cl)cc21: 99.1
- COc1cc2ncnc(N3CCN(C(=O)Nc4ccc(Oc5ccccc5)cc4)CC3)c2cc1OC: 81.3
- CN([C@@H](Cc1ccc(OS(=O)(=O)c2cccc3cnccc23)cc1)C(=O)N1CCN(c2ccccc2)CC1)S(=O)(=O)c1cccc2cnccc12: 96.2
